Values were extracted from patent US20240247080A1.

SYSTEM_NAME: human GLP-1 receptor (human, UniProt P43220 24-463)
MEASUREMENT_DESCRIPTION: cell-based or functional assay
Non-standard residues stand in square brackets, D forms with d. Groups on a side chain read outwards from the residue. No end group written: not given here. *: point of attachment. C18 diacid = O=C(O)CCCCCCCCCCCCCCCCC(=O)*; AEEA = NCCOCCOCC(=O)O; Aib = CC(C)(N)C(=O)O
Field: EC50 CreLuc hGLP1R 0.5% hP. Provide a value for each of the binders that follow.
Give bare numbers, in nM.

| BINDER | UNITS | QUANTITATIVE_READOUT |
| --- | --- | --- |
| Y[Aib]EGTFTSDYSI[Aib]LEKQAQ[Aib]EFVQWLIK([AEEA-AEEA-Glu-Glu-Glu-C18 diacid])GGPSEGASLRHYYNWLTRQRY-NH2 [Compound 157] | nM | 0.35 |
| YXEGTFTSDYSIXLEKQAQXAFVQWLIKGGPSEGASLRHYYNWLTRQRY (Aib at 2, 13, 20; NMeQ at 47; K28 side chain: C20DA-gGlu-gGlu-gGlu-gGlu-gGlu-gGlu-eLys; C-terminal NH2) [Compound 115] | nM | 0.12 |
| YXEGTFTSDYSIXLEKQAQXAFVEWLIKGGPRSGASLRHYYNWLTRQRY (Aib at 2, 13, 20; K28 side chain: C20DA-gGlu-gGlu-gGlu-gGlu-gGlu-gGlu-eLys; C-terminal NH2) [Compound 168] | nM | 0.11 |
| Y[Aib]EGTFTSDYSI[Aib]LEEQAQ[Aib]AFVEWLIKGGPSSGASLRHYYNWLTRQRY-NH2 (not fully specified (residue 28)) [Compound 100] | nM | 0.12 |

**Query** Name the reported EC50 CreLuc hGLP1R 0.5% hP value associated with the binder YXEGTFTSDYSIXLEKQAQXAFVEWLIKGGPSSGASIRHYYNWLTRQRY (Aib at 2, 13, 20; K28 side chain: C20DA-gGlu-gGlu-gGlu-gGlu-gGlu-gGlu-eLys; C-terminal NH2) [Compound 132]
**Result** 0.14
